meta.source: PubChem BioAssay AID2060898

For each of the compounds below, state its viability, T/C.
# Tested on: 616215-338-R-J1-PDC complex spheroid viability
# protocol: Anticancer human tumor 616215-338-R-J1-PDC patient-derived colon adenocarcinoma cell line growth inhibition [RAS]
# experimental context: second compound 0.3 µM; first compound 0.1 µM; stronger effect = lower value
Answers are plain numbers, in %.

Field: example entries. Status: answers known.
[[record]]
compound = "CC(C)NCC(C(=O)N1CCN(c2ncnc3c2C(C)CC3O)CC1)c1ccc(Cl)cc1 (stereo not given) + CCn1c(-c2cccnc2C(C)OC)c2c3cc(ccc31)N1CCOC(CC(NC(=O)C(C(C)C)N(C)C(=O)C3(F)CCN(C(=O)C#CC(C)(C)N(C)C)CC3)C(=O)N3CCCC(N3)C(=O)OCC(C)(C)C2)C1"
property_name = "viability, T/C"
unit_abbrev = "%"
result = 116

[[record]]
compound = "CC(C)n1nc(-c2ccc3oc(N)nc3c2)c2c(N)ncnc21 + CCn1c(-c2cc(N3CCN(C)CC3)cnc2C(C)OC)c2c3cc(ccc31)-c1csc(n1)CC(NC(=O)C1CC1C)C(=O)N1CCCC(N1)C(=O)OCC(C)(C)C2"
property_name = "viability, T/C"
unit_abbrev = "%"
result = 22.8

[[record]]
compound = "CC(=O)OC12COC1CC(O)C1(C)C(=O)C(O)C3=C(C)C(OC(=O)C(O)C(NC(=O)OC(C)(C)C)c4ccccc4)CC(O)(C(OC(=O)c4ccccc4)C21)C3(C)C (stereo not given) + CCn1c(-c2cc(N3CCN(C)CC3)cnc2C(C)OC)c2c3cc(ccc31)-c1csc(n1)CC(NC(=O)C1CC1C)C(=O)N1CCCC(N1)C(=O)OCC(C)(C)C2"
property_name = "viability, T/C"
unit_abbrev = "%"
result = 13.3

[[record]]
compound = "C=CC(=O)Nc1cc(Nc2nccc(-c3cn(C)c4ccccc34)n2)c(OC)cc1N(C)CCN(C)C + CCn1c(-c2cc(N3CCN(C)CC3)cnc2C(C)OC)c2c3cc(ccc31)-c1csc(n1)CC(NC(=O)C1CC1C)C(=O)N1CCCC(N1)C(=O)OCC(C)(C)C2"
property_name = "viability, T/C"
unit_abbrev = "%"
result = 37.3


Now for the compound whose viability, T/C we want.
Task item: # input compound: Cc1nc(N2CCC3(CC2)COC(C)C3N)c(CO)nc1Sc1ccnc(N)c1Cl (stereo not given) + CCn1c(-c2cccnc2C(C)OC)c2c3cc(ccc31)N1CCOC(CC(NC(=O)C(C(C)C)N(C)C(=O)C3(F)CCN(C(=O)C#CC(C)(C)N(C)C)CC3)C(=O)N3CCCC(N3)C(=O)OCC(C)(C)C2)C1 ; wanted: its viability, T/C
Reply: 84

###

For each of the compounds below, state its viability, T/C.
# System: 616215-338-R-J1-PDC complex spheroid viability
# protocol: Anticancer human tumor 616215-338-R-J1-PDC cell line growth inhibition [RAS];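 further: spheroids exposed to agents for seven days before viability readout; 100% = DMSO vehicle control viability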
# experimental context: second compound 0.000949 µM; first compound 10 µM; stronger effect = lower value
# From the text: RAS pathway inhibitors in Combinations in Complex Spheroids A high-throughput screen of multi-cell type tumor spheroids was designed to identify active combinations of RAS pathway inhibitors and targeted small molecules. Complex spheroids include a stromal component modeled by human endothelial cells (HUVEC) and fibroblasts modeled by human mesenchymal stem cells (MSCs). […] Compounds. […] If the clinical Cmax for an agent had not been determined, the highest concentration tested was 10 microM. […]
Give bare numbers, in %.

[[record]]
compound = "CC(Nc1ccc2c(c1)OCCn1cc(N3C(=O)OCC3C(F)F)nc1-2)C(N)=O (configuration not stated) + CCn1c(-c2cc(N3CCN(C)CC3)cnc2C(C)OC)c2c3cc(ccc31)-c1csc(n1)CC(NC(=O)C1CC1C)C(=O)N1CCCC(N1)C(=O)OCC(C)(C)C2"
property_name = "viability, T/C"
result = 74.5


Now for the compound whose viability, T/C we want.
Task item: # input compound: CC(C)NCC(C(=O)N1CCN(c2ncnc3c2C(C)CC3O)CC1)c1ccc(Cl)cc1 (configuration not stated) + CCn1c(-c2cc(N3CCN(C)CC3)cnc2C(C)OC)c2c3cc(ccc31)-c1csc(n1)CC(NC(=O)C1CC1C)C(=O)N1CCCC(N1)C(=O)OCC(C)(C)C2 ; wanted: its viability, T/C
Reply: 41
